# Test system: Streptococcus pneumoniae
# assay-info: Antibacterial activity against Streptococcus pneumoniae 6303 by NCCLS method
# Assay type: functional
readout: MIC (µg/mL)

compound: CC[C@H]1OC(=O)[C@H](C)C(=O)[C@H](C)[C@@H](O[C@@H]2O[C@H](C)C[C@H](N(C)C)[C@H]2O)[C@](C)(OC)C[C@@H](C)C(=O)[C@H](C)[C@H]2N(CCCCn3cnc(-c4cccnc4)c3)C(=O)O[C@]12C [TELITHROMYCIN]
unit-abbrev: µg/mL
MIC: 0.03

(a) C=CCN(C)[C@H]1C[C@@H](C)O[C@@H](O[C@@H]2[C@@H](C)[C@H](OC(=O)Cc3ccccn3)[C@@H](C)C(=O)O[C@H](CC)[C@@]3(C)OC(=O)N(CCCCn4cnc(-c5ccccc5)c4)[C@@H]3[C@@H](C)C(=O)[C@H](C)C[C@@]2(C)OC)[C@@H]1O
(b) C=CCN(C)[C@H]1C[C@@H](C)O[C@@H](O[C@@H]2[C@@H](C)[C@H](OC(=O)Cc3ccccn3)[C@@H](C)C(=O)O[C@H](CC)[C@@]3(C)OC(=O)N[C@@H]3[C@@H](C)C(=O)[C@H](C)C[C@@]2(C)OC)[C@@H]1O
(c) C=CCN(C)[C@H]1C[C@@H](C)O[C@@H](O[C@@H]2[C@@H](C)[C@H](OC(=O)Cc3ccccn3)[C@@H](C)C(=O)O[C@H](CC)[C@@]3(C)OC(=O)N(CCCCn4cnc(-c5cnc(N)nc5)c4)[C@@H]3[C@@H](C)C(=O)[C@H](C)C[C@@]2(C)OC)[C@@H]1O
Ascending by MIC, please. // list labels; follow requested order c, a, b
(c: 0.03 µg/mL, a: 0.06 µg/mL, b: 0.125 µg/mL)

----------
# System: Streptococcus pneumoniae
# assay-info: Antibacterial activity against Streptococcus pneumoniae 49619 by NCCLS method
# Format: functional
readout: MIC (mg/L)

The following molecules have reported results that may help.
molecule: CC[C@H]1OC(=O)[C@H](C)[C@@H](O[C@H]2C[C@@](C)(OC)[C@@H](O)[C@H](C)O2)[C@H](C)[C@@H](O[C@@H]2O[C@H](C)C[C@H](N(C)C)[C@H]2O)[C@](C)(O)C[C@@H](C)CN(C)[C@H](C)[C@@H](O)[C@]1(C)O [AZITHROMYCIN]
number: 0.25
--
molecule: CC[C@H]1OC(=O)[C@H](C)C(=O)[C@H](C)[C@@H](O[C@@H]2O[C@H](C)C[C@H](N(C)C)[C@H]2O)[C@](C)(OC)C[C@@H](C)C(=O)[C@H](C)[C@H]2N(CCCCn3cnc(-c4cccnc4)c3)C(=O)O[C@]12C [TELITHROMYCIN]
number: 0.06

(1) C=CCN(C)[C@H]1C[C@@H](C)O[C@@H](O[C@@H]2[C@@H](C)[C@H](OC(=O)Cc3cccnc3)[C@@H](C)C(=O)O[C@H](CC)[C@@]3(C)OC(=O)N(CCCCn4ccc5cccnc54)[C@@H]3[C@@H](C)C(=O)[C@H](C)C[C@@]2(C)OC)[C@@H]1O
(2) C=CCN(C)[C@H]1C[C@@H](C)O[C@@H](O[C@@H]2[C@@H](C)[C@H](OC(=O)Cc3ccccn3)[C@@H](C)C(=O)O[C@H](CC)[C@@]3(C)OC(=O)N(CCCCn4cnc(-c5cccc(N)c5)c4)[C@@H]3[C@@H](C)C(=O)[C@H](C)C[C@@]2(C)OC)[C@@H]1O
Just curious, which one has the larger MIC reading, 1 or 2 ? Give the chosen item's label as your response. 1
(1: 0.06 mg/L, 2: 0.03 mg/L)
